Consider the following molecules; for each one, report its T/C.
- Tested on: P388 leukemia ip, CD2F1 mice, survival T/C
- PROTOCOL_DETAILS: NCI In Vivo Anticancer Drug Screen. Data for tumor model P388 Leukemia (intraperitoneal) in CD2F1 (CDF1) mice
- ASSAY_SETUP: endpoint: median survival time; dose: 200.0 mg/kg/injection; schedule: Q01DX005 (ip); vehicle: Klucel (hydroxypropylcellulose) (HPC); higher = longer survival
Toxic doses and inconclusive results are not listed.

> print(dat)
                                   molecule       test.result
1              O=C1CC(c2ccccc2)=NN1c1ccccc1   95 % of control
2  COC(=O)C1=C(C(=O)OC)P2(C)(C)ON(c3ccccc3)C(C(=O)c3ccccc3)N2C1(c1ccccc1)c1ccccc1 (stereo unspecified)   98 % of control
3         O=C(O)c1cc2cc3c(cc2c2ccccc12)OCO3  108 % of control
4                 CN1C(=O)CN(CN2CCOCC2)C1=O  117 % of control

For every listed record, write down its T/C.
1. CN(C)C(=S)SSC(C)(C)C
2. C=Cc1c(C)c2[nH]c1=CC1=NC(=CC3=NC(=CC4=C(C)/C(=C\NO)C(=N4)C=2)C(C)=C3CCC(=O)OC)C(CCC(=O)OC)=C1C
3. COC(=O)CCSC(=O)NS(=O)(=O)c1ccc(C)cc1
4. CCCCN(CCCC)CCNc1ccc(C)c2sc3c(Cl)cccc3c(=O)c12
5. CC(=O)c1ccc2c(c1)NC(=O)CC(C)N2 (stereo unspecified)
6. CCN(CC)C(=S)C(C)=C(Sc1ccccc1)Sc1ccccc1

Key:
100 % of control
99 % of control
104 % of control
105 % of control
103 % of control
99 % of control

Exercise: Tell me the measured T/C of CN1C(=O)OC(c2ccc(Cl)cc2)C1=O (stereo unspecified) , please.
Key: 100 % of control

====

- System: P388 leukemia ip, CD2F1 mice, survival T/C
- PROTOCOL_DETAILS: NCI In Vivo Anticancer Drug Screen. Data for tumor model P388 Leukemia (intraperitoneal) in CD2F1 (CDF1) mice
- ASSAY_SETUP: endpoint: median survival time; dose: 25.0 mg/kg/injection; schedule: Q01DX005 (ip); vehicle: saline with Tween-80; higher = longer survival
Toxic doses and inconclusive results are not listed.
RECORDED_ENDPOINT: T/C

Here are 6 molecules together with their reported answers.
> print(dat)
                                   molecule  recorded.endpoint       test.result
1  C(#CC1CO1)CCCC#CC1CO1 (centres undefined)                T/C  110 % of control
2  COC(=O)CC1(O)C=CC(=O)c2ccccc21 (centres undefined)                T/C  100 % of control
3                  Cn1nnc2c(C(N)=O)ncn2c1=O                T/C  118 % of control
4  N#[N+]c1ccc2c(S(=O)(=O)Oc3ccc(C(=O)c4ccccc4)c(OS(=O)(=O)c4cccc5c([O-])c([N+]#N)ccc45)c3)cccc2c1[O-]                T/C  107 % of control
5  CC12CCC(C=C1N1CCOCC1)C(C)(C)O2 (centres undefined)                T/C   97 % of control
6                   N#CCc1ccc(N(CCO)CCO)cc1                T/C  101 % of control

For every listed record, write down its T/C.
1. COc1ccc(Cc2cc(N=NC(N)=O)c(OC)cc2O)cc1
2. CC(C)(C)C1CCC2(CC1)OCC1CCCN12 (centres undefined)
3. C/C(=N\NC(=S)N1CC(C)OC(C)C1)c1cnccn1 (centres undefined)

Key:
1. 87 % of control
2. 88 % of control
3. 100 % of control

====

Consider the following molecules; for each one, report its T/C.
- System: P388 leukemia ip, CD2F1 mice, survival T/C
- PROTOCOL_DETAILS: NCI In Vivo Anticancer Drug Screen. Data for tumor model P388 Leukemia (intraperitoneal) in CD2F1 (CDF1) mice
- ASSAY_SETUP: endpoint: median survival time; dose: 400.0 mg/kg/injection; schedule: Q01DX009 (ip); vehicle: saline with Tween-80; higher = longer survival
- Experimental: The antitumor activity of compounds was measured in mice bearing transplantable tumors. Survival or tumor size were measured and the results are expressed as the measurement made in the treated group (T) divided by the measurement made in the vehicle treated control group (C). The tumor model used in this assay is P388 Leukemia (intraperitoneal) in CD2F1 (CDF1) mice
Toxic doses and inconclusive results are not listed.

Here are 5 molecules together with their reported answers.
> print(dat)
                                   molecule       test.result
1                     O=C(Nc1nccs1)C(F)(F)F  108 % of control
2                           O=CNc1ccc(O)cc1  118 % of control
3             CC(=O)OCCN1c2ccccc2Sc2cnccc21   95 % of control
4  CCOC(=O)C(CNc1ccc(O)cc1)NC(=O)c1ccccc1 (stereo unspecified)   94 % of control
5  O=[N+]([O-])c1ccccc1SSc1ccccc1[N+](=O)[O-]  100 % of control

For every listed record, write down its T/C.
1. CCOC(=O)C(Cc1ccc(O)cc1)Nc1nc2ccccc2o1 (stereo unspecified)
2. O=C(CCl)NC(Cc1ccccc1)C(=O)O (stereo unspecified)
3. Nc1ccccc1SC1CC(=O)N(c2ccc(Cl)cc2)C1=O (stereo unspecified)
4. COC(=O)C1C2C(C)CC3(CC12C)OCCO3 (stereo unspecified)
5. CC(=O)Nc1ccc2c(c1)Cc1ccccc1-2
6. CCOC(=O)/C(=C/Nc1ccc(OCc2ccccc2)cc1)NC(=O)c1ccccc1

Key:
1. 96 % of control
2. 103 % of control
3. 100 % of control
4. 91 % of control
5. 95 % of control
6. 97 % of control

====

Consider the following compounds; for each one, report its T/C.
- Tested on: P388 leukemia ip, CD2F1 mice, survival T/C
- PROTOCOL_DETAILS: NCI In Vivo Anticancer Drug Screen. Data for tumor model P388 Leukemia (intraperitoneal) in CD2F1 (CDF1) mice
- ASSAY_SETUP: endpoint: median survival time; dose: 200.0 mg/kg/injection; schedule: Q01DX009 (ip); vehicle: saline with Tween-80; higher = longer survival
Toxic doses and inconclusive results are not listed.

Here are 5 compounds together with their reported answers.
> print(dat)
                                   compound                              assay.target  recorded.endpoint       test.result
1          CCCCOc1ccc(NC(=O)Nc2nnc(C)s2)cc1  P388 leukemia ip, CD2F1 mice, survival T/C                T/C   86 % of control
2             CC(=O)Nc1ccc2c(c1)Cc1ccccc1-2  P388 leukemia ip, CD2F1 mice, survival T/C                T/C   95 % of control
3  CCOC(=O)C(Cc1ccc(O)cc1)Nc1nc2ccccc2o1 (stereo unspecified)  P388 leukemia ip, CD2F1 mice, survival T/C                T/C  103 % of control
4                           Clc1ccc2nsnc2c1  P388 leukemia ip, CD2F1 mice, survival T/C                T/C   95 % of control
5  CCOC(=O)C(CNc1ccc(O)cc1)NC(=O)c1ccccc1 (stereo unspecified)  P388 leukemia ip, CD2F1 mice, survival T/C                T/C   94 % of control

Consider the record given below.
Exercise: Given the entry `Cn1nnnc1N/N=C(\Br)c1ccccc1` , what T/C was observed with P388 leukemia ip, CD2F1 mice, survival T/C?
Key: 104 % of control

====

Consider the following molecules; for each one, report its T/C.
- Tested on: P388 leukemia ip, CD2F1 mice, survival T/C
- PROTOCOL_DETAILS: NCI In Vivo Anticancer Drug Screen. Data for tumor model P388 Leukemia (intraperitoneal) in CD2F1 (CDF1) mice
- ASSAY_SETUP: endpoint: median survival time; dose: 50.0 mg/kg/injection; schedule: Q01DX005 (ip); vehicle: saline with Tween-80; higher = longer survival
Toxic doses and inconclusive results are not listed.

> print(dat)
                                   molecule       test.result
1  COc1cc2c(cc1C(C)c1cc(C)c(OC)c(C)c1)OCO2 (stereo not drawn)  100 % of control

For every listed record, write down its T/C.
1. CC(C)(C)OC(=O)NC(CCC(N)=O)C(=O)ON1C(=O)CCC1=O (stereo not drawn)
2. Cc1ccccc1N1C(=O)C(C)(C)OC1=S
3. CN(/N=C1\C(=O)Nc2ccccc21)c1ccccc1
4. FC(F)(F)COP(OCC(F)(F)F)c1ccccc1
5. CCN(CC)c1ccc2cc(S(=O)(=O)c3ccc(Cl)cc3)c(=O)oc2c1

Key:
98 % of control
97 % of control
95 % of control
106 % of control
86 % of control

For every listed record, write down its T/C.
1. OC1COC(O)(CN2CCOCC2)C(O)C1O (stereo not drawn)
2. COC(=O)C1=CO[C@@H](C)[C@@H]2CN3CCc4c([nH]c5cc(OC)ccc45)[C@@H]3C[C@H]12

Key:
1. 100 % of control
2. 96 % of control

Data provenance: PubChem BioAssay AID330
